Entries and their measured IC50 follow.
Assay System: α4β1 (Homo sapiens, UniProt P05556+P13612)
Construct: 100 µl of Jurkat cells (2.5 x 10^6 cells/ml) in DMEM plus BSA
Sequence (P13612 34-1032): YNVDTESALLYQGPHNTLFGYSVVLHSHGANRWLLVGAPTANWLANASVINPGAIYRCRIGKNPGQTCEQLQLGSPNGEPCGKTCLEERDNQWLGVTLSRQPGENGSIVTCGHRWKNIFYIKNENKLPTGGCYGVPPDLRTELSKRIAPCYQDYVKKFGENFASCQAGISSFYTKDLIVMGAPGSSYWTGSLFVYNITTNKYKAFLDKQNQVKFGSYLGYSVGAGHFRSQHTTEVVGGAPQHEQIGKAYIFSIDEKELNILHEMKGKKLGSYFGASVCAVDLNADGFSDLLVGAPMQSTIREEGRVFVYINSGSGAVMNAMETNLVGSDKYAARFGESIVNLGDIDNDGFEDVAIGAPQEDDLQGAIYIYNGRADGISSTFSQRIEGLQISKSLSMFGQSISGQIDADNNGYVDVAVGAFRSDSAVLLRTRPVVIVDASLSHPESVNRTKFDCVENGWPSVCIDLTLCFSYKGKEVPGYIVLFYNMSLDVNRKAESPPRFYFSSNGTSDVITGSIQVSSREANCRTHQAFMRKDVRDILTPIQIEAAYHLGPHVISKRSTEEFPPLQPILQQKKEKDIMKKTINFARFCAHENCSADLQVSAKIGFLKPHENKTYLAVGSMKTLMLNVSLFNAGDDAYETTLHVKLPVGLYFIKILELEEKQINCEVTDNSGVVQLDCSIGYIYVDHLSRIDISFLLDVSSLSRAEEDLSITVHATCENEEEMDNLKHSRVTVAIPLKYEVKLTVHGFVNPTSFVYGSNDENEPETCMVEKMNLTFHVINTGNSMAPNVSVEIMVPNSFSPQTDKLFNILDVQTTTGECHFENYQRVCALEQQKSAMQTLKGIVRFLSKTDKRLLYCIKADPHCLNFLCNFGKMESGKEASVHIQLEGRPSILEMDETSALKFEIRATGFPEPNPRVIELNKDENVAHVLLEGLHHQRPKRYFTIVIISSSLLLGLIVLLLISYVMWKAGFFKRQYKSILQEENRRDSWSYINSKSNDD
Sequence (P05556 21-798): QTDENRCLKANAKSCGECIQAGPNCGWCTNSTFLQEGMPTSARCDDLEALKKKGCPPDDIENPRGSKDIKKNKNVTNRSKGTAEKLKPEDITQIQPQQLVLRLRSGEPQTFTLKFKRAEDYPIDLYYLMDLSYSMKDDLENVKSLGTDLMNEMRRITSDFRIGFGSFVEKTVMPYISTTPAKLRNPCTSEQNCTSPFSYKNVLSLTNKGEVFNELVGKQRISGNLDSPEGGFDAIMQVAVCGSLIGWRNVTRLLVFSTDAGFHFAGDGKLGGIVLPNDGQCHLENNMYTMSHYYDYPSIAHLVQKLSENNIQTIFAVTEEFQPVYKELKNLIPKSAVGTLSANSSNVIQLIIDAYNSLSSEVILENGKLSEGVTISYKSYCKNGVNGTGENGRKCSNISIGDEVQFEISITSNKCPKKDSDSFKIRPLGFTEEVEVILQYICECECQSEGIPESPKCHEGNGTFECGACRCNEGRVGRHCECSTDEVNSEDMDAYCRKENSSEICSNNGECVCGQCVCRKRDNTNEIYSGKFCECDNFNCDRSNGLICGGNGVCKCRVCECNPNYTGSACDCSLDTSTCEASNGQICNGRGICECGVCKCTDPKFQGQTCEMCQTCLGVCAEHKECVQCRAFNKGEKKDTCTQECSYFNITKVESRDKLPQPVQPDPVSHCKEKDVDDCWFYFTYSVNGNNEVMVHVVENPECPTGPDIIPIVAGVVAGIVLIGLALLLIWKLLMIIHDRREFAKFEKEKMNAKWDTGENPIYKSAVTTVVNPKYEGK
Assay Info: Jurkat-CS-1 assay
Stated Conditions: Jurkat cell adhesion to immobilized CS-1 derived peptide
Where a name gives a salt, the structure may show the parent alone.

Answered cases to consult:
# IC50 of O=C(O)c1cccc(C(=O)N[C@H]2CCCC[C@H]2C(=O)N[C@@H](Cc2ccc(NC(=O)c3c(Cl)cccc3Cl)cc2)C(=O)O)n1 (relative stereo) = 80 to 500 nM

What the record says about `O=C(O)c1ccccc1C(=O)NC1(C(=O)N[C@@H](Cc2ccc(NC(=O)c3c(Cl)cccc3Cl)cc2)C(=O)O)CCCCC1` : IC50 is 80 to 500 nM

More entries:
For record `CC(=O)[C@@H]1C[C@@H](C(=O)N[C@@H](Cc2ccc(NC(=O)c3c(Cl)cccc3Cl)cc2)C(=O)O)C1(C)C` the listed IC50 is 80 to 500 nM

The molecule listed as `CC1(C)[C@@H](CC(=O)N[C@@H](Cc2ccc(NC(=O)c3c(Cl)cccc3Cl)cc2)C(=O)O)C[C@H]1C(=O)O` has a reported IC50 of 80 to 500 nM

Given item `O=C(Nc1ccc(C(=O)O)cc1)NC1(C(=O)N[C@@H](Cc2ccc(NC(=O)c3c(Cl)cccc3Cl)cc2)C(=O)O)CCCCC1` , the value recorded as its IC50 is 500 to 1000 nM

// sample `CC(=O)c1cccc(OC(C)(C)C(=O)N[C@@H](Cc2ccc(NC(=O)c3c(Cl)cccc3Cl)cc2)C(=O)O)c1` , its IC50 was 500 to 1000 nM

Input O=C(Nc1ccc(C[C@H](NC(=O)C2(NC(=O)C3CCCO3)CCCCC2)C(=O)O)cc1)c1c(Cl)cccc1Cl (stereo partly drawn) . Output IC50: 80 to 500 nM

`O=C(O)c1ccc(C(=O)NC2(C(=O)N[C@@H](Cc3ccc(NC(=O)c4c(Cl)cccc4Cl)cc3)C(=O)O)CCCCC2)nc1` has a reported IC50 of 80 to 500 nM

`CC(=O)CCC(=O)Nc1cccc(C(=O)N[C@@H](Cc2ccc(NC(=O)c3c(Cl)cccc3Cl)cc2)C(=O)O)c1` has a reported IC50 of 500 to 1000 nM

Measured IC50, O=C(O)c1ccc(C(=O)NC2(C(=O)N[C@@H](Cc3ccc(NC(=O)c4c(Cl)cccc4Cl)cc3)C(=O)O)CC3CCC2C3)nc1 (stereo partly drawn) : 80 to 500 nM

// `O=C(O)CNC(=O)Nc1cccc(C(=O)N[C@@H](Cc2ccc(NC(=O)c3c(Cl)cccc3Cl)cc2)C(=O)O)c1` : IC50 value = 80 to 500 nM

So for O=C(NC1CCCCC1C(=O)NC(Cc1ccc(NC(=O)c2c(Cl)cccc2Cl)cc1)C(=O)O)c1cccnc1 (stereo not drawn) , the logged IC50 turned out to be 80 to 500 nM

Just so you know, measured IC50 for `COC(=O)[C@H](Cc1ccc(NC(=O)c2c(Cl)cccc2Cl)cc1)NC(=O)c1cccc2c1CCC/C2=C/C(=O)O` came out at 500 to 1000 nM

For reference, reported IC50 for O=C(Nc1ccc(CC(NC(=O)C2CCCCC2NC(=O)C2CCCO2)C(=O)O)cc1)c1c(Cl)cccc1Cl (stereo not drawn) stands at ≤ 80 nM

So, O=C(O)/C=C1\CCCc2cc(C(=O)N[C@@H](Cc3ccc(NC(=O)c4c(Cl)cccc4Cl)cc3)C(=O)O)ccc21 [Example 135, sodium salt] ? Its IC50 was 500 to 1000 nM

---

Assay System: α4β1 integrin (Homo sapiens, UniProt P05556+P13612)
Construct: a T-cell line, Jurkat, known to express the α4β1 integrin
Sequence (P13612 34-1032): as the sequence (P13612 34-1032) above
Sequence (P05556 21-798): as the sequence (P05556 21-798) above
Assay Info: Jurkat-Endothelial Cell Adhesion Assay (Jurkat EC)
Stated Conditions: Jurkat cell adhesion to IL-1 stimulated endothelial cell monolayers
Collected IC50 values appear next to each entry.

Use these answered entries as a reference point.
Lab book: IC50 of O=C(O)c1ccc(C(=O)NC2(C(=O)N[C@@H](Cc3ccc(NC(=O)c4c(Cl)cccc4Cl)cc3)C(=O)O)CC3CCC2C3)nc1 (stereo partly drawn) noted as ≤ 0.8 µM

// recorded IC50 for `O=C(O)/C=C1\CCCc2c(C(=O)N[C@@H](Cc3ccc(NC(=O)c4c(Cl)cccc4Cl)cc3)C(=O)O)cccc21` : ≤ 0.8 µM

Next compound, IC50 to be filled in.
Per the record, `O=C(O)c1cncc(C(=O)Nc2cccc(C(=O)N[C@@H](Cc3ccc(NC(=O)c4c(Cl)cccc4Cl)cc3)C(=O)O)c2)c1` has IC50 of 5 to 10 µM

---

Assay System: α4β1 (Homo sapiens, UniProt P05556+P13612)
Construct: 100 µl of Jurkat cells (2.5 x 10^6 cells/ml) in DMEM plus BSA
Assay Info: Jurkat-CS-1 assay
Stated Conditions: Jurkat cell adhesion to immobilized CS-1 derived peptide
Source text: The CS-1 derived peptide, CLHPGEILDVPST, and the scrambled control peptide, CLHGPIELVSDPT, were synthesized on a Beckman 990 synthesizer using t-Boc methodology. The peptides were immobilized onto microtiter plates using the heterobifunctional crosslinker 3-(2-pyridyldithio)propionic acid N-hydroxysuccinimide ester (SPDP) as reported by Pierschbacher et al., Proc. Natl. Acad. USA, 80:1224-1227 (1983). […]
pIC50: −log10 of the molar value.
Property Name: pIC50

Answered examples (5):
# compound O=C(O)c1cccc(C(=O)NC2(C(=O)N[C@@H](Cc3ccc(NC(=O)c4c(Cl)cccc4Cl)cc3)C(=O)O)CC3CCC2C3)n1 (stereo partly drawn) [Example 71] ; its pIC50 = 6.30 to 7.10

Entry O=C(Nc1ccc(C[C@H](NC(=O)C2(NC(=O)C3CCOC3)CCCCC2)C(=O)O)cc1)c1c(Cl)cccc1Cl (stereo partly drawn) [Example 69] , pIC50 reported as 6.30 to 7.10

Entry O=C(N[C@@H](Cc1ccc(NC(=O)c2c(Cl)cccc2Cl)cc1)C(=O)O)c1cccc(NC(=O)C2CCCC(C(=O)O)C2)c1 (stereo partly drawn) [Example 38] ; pIC50 = 6.00 to 6.30

Reported pIC50 ( CC1(C)[C@@H](C(=O)O)C[C@@H]1C(=O)N[C@@H](Cc1ccc(NC(=O)c2c(Cl)cccc2Cl)cc1)C(=O)O [Example 98] ) = 6.30 to 7.10

For record O=C(O)CC1(CC(=O)NC2(C(=O)N[C@@H](Cc3ccc(NC(=O)c4c(Cl)cccc4Cl)cc3)C(=O)O)CCCCC2)CCCC1 [Example 47] the listed pIC50 is 6.30 to 7.10

Next:
Input O=C(O)/C=C/c1ccc(C(=O)N[C@@H](Cc2ccc(NC(=O)c3c(Cl)cccc3Cl)cc2)C(=O)O)cc1 [Example 125] . Output pIC50: ≥ 7.10

Notebook: O=C(Nc1ccc(C[C@H](NC(=O)[C@@H]2CCC[C@H]2C(=O)O)C(=O)O)cc1)c1c(Cl)cccc1Cl [Example 9] , pIC50 read as 6.00 to 6.30

compound O=C(Nc1ccc(C[C@H](NC(=O)N2CCCC(C(=O)O)C2)C(=O)O)cc1)c1c(Cl)cccc1Cl (stereo partly drawn) [Example 116] , pIC50 observed: 6.30 to 7.10

Lookup result for O=C(O)/C=C1/CCCc2c(C(=O)N[C@@H](Cc3ccc(NC(=O)c4c(Cl)cccc4Cl)cc3)C(=O)O)cccc21 [Example 131] ; measured pIC50: ≥ 7.10
